experimentalDetails: MRP1 drug-resistance reversers in H69AR cells – cell-based, doxorubicin co-treatment, pilot screen (AID 601)
runConditions: H69AR cells + 2 uM doxorubicin, CellTiter-Glo, 72 h; measured here: viability with 2 uM doxorubicin; at 10 µM; stronger effect = lower value
metricName: viability (%)
Entry rule: numbers only, all in %.

Recorded viability, per entry:
- CN(C)C(=O)N1CCN(C(=O)c2ccco2)CC1: 94.6
- CNC(=O)c1ccsc1NC(=O)c1ccccc1: 84.5
- CCCCN(CC)CCNC(=O)c1cc2c(C)nc3ccccc3c2o1: 82.4
- COC(=O)CCCCC(=O)C1C(=O)CC(C)(C)C(C(=O)OC)C1=O (stereo unspecified): 95.5
- Cc1cccc(N2CCN(C(=O)Cn3nc(Cc4ccncc4)c4ccccc4c3=O)CC2)c1C: 83.5

Report viability for Oc1c(C(c2ccccc2)N2CCc3ccccc3C2)sc2ncnn12 (stereo unspecified) please.
85.1

Entry O=C(CC1Oc2ccc(Cl)cc2NC1=O)NC1CCCCCC1 (stereo unspecified) : reported viability = ?
91.6

Fill blank: measured viability of the compound "Cc1ccc(N=Cc2ccc[nH]2)c(O)c1" is ____.
96.4

Which viability reading was recorded for the compound "CCn1c2ccccc2c2cc(Nc3cc(C)nc4ncnn34)ccc21" ?
57.4

// query viability value for entry "COc1cccc(-n2c(SCC(=O)N3CCCC3)nc3c([nH]c4ccccc43)c2=O)c1"
77.9

Tell me the measured viability of CCOC(=O)C1=C(CS(=O)(=O)c2ccc(F)c(C)c2)NC(=O)NC1c1ccc(O)c(O)c1 (stereo unspecified) , please.
83.4
